protocol: NCI Yeast Anticancer Drug Screen. Data for the mlh1 rad18 strain (AID 175)
protocolConditions: S. cerevisiae mlh1 rad18 strain growth inhibition; at 50.0 µM; stronger effect = higher value
Compounds without any hit were thinned out: in the full panel of roughly 79,000, 15% have a hit.
Entry flag: yes (1) if growth inhibition reaches 10%; no (0) if it does not.

compound: NCc1ccccc1[N+](=O)[O-]
label: yes (1)
//
compound: CCOC(=O)NC(C)(C)CN(CCO)C(=O)OCC
label: no (0)
//
compound: Cc1ccccc1NN
label: no (0)
//
compound: O=C(/C=C/c1ccc(Cl)cc1)c1ccncc1
label: yes (1)
//
compound: NC(N)=NCC1CCCCCCN1 (centres undefined)
label: yes (1)
//
compound: COc1cc(CN(c2ccccc2C(=O)O)S(=O)(=O)c2ccc(C)cc2)ccc1[N+](=O)[O-]
label: yes (1)
//
compound: NC(=O)C(N)CC(=O)O (centres undefined)
label: yes (1)
//
compound: CSc1ccc2c(c1)Cc1cc(NC(C)=O)ccc1-2
label: no (0)
//
compound: CC(=O)SCCCCl
label: no (0)
//
compound: COc1ccc(N=Nc2ccc(OC)cc2C)c(C)c1
label: no (0)
//
compound: COc1cccc(C2c3cc4c(cc3OC(NNC(N)=O)C2C)OCO4)c1O (centres undefined)
label: no (0)
//
compound: O=C(Cl)CN1C(=O)c2ccccc2C1=O
label: no (0)
//
compound: NC(=O)CNC(=O)CN1C(=O)c2ccccc2C1=O
label: no (0)
//
compound: CCCCc1ccccn1
label: yes (1)

---

protocol: NCI Yeast Anticancer Drug Screen. Data for the mec2-1 strain (AID 157)
protocolConditions: S. cerevisiae mec2-1 strain, at 50.0 µM, stronger effect = higher value
This is part of a sample that, as a whole, favours compounds with a hit. Of some 79,000 tested, about 15% had one in any assay.
Entry flag: Met if growth inhibition reaches 10%; Not met if it does not.

compound: COc1ccc2c(c1)CCC1C2CCC2(C)C(=O)C(n3cnc4c(=S)nc[nH]c43)CC12 (stereo unspecified)
label: Met
//
compound: CCCCNCC1C(O)CCC2CN3CCc4c([nH]c5ccccc45)C3CC21 (stereo unspecified)
label: Not met
//
compound: COC(=O)C(=O)C(C(C)=O)C(=O)C(=O)Nc1ccc(C)cc1C (stereo unspecified)
label: Met
//
compound: N#Cc1nnn2c1nc(N)c1c(Cl)cccc12
label: Not met
//
compound: Nc1ccc(Nc2c3ccccc3nc3ccccc23)cc1
label: Met
//
compound: Cc1ccc(N=Nc2ccc(C)cc2NC(=S)Nc2ccccc2)cc1
label: Not met

---

protocol: NCI Yeast Anticancer Drug Screen. Data for the rad50 strain (AID 155);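 also: 0% = growth of vehicle-only cultures of the same strain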
protocolConditions: S. cerevisiae rad50 strain growth inhibition; at 50.0 µM
About 79,000 compounds went through this panel and 15% of them were active in at least one assay; those are over-represented in the sample as a whole. The source made the active and inactive calls. No stated cut-off is given here; in the data, active means growth inhibition above about 70%; inactive means the rest.
Classes used: true (1) = active, false (0) = inactive

molecule: COC(=O)[C@H](Cc1c[nH]c2ccccc12)NP(=O)(OCCC#N)OCC1OC(n2cc(C)c(=O)[nH]c2=O)CC1N=[N+]=[N-] (stereo not given in full)
label: false (0)
--
molecule: COc1ccc(-c2nc(SCC(=O)O)n(-c3ccccn3)c2-c2ccc(OC)cc2)cc1
label: true (1)
--
molecule: Cc1ccc(SC(=O)N2C(=S)NC(=NC3CCCCC3)C23CCCCC3)cc1
label: false (0)
--
molecule: COc1cc(O)c2c(c1)C(=O)C1=C(C2=O)C(O)C[C@@](C)(O)C1 (stereo not given in full)
label: true (1)
--
molecule: COc1cccc(C(=O)O)c1O
label: false (0)

---

// reported growth inhibition for each item listed
protocol: NCI Yeast Anticancer Drug Screen. Data for the bub3 strain (AID 167)
protocolConditions: S. cerevisiae bub3 mutant strain, at 50.0 µM, stronger effect = higher value
About 79,000 compounds went through this panel and 15% of them were active in at least one assay; those are over-represented in the sample as a whole.
reportedEndpoint: growth inhibition (%)

compound: CCOC(=O)/C(N=O)=C(/C)O
reportedEndpoint: growth inhibition
endpointValue: 11.4
--
compound: CC1(C)OCC(Cc2ccc3c(c2)OCO3)CO1
reportedEndpoint: growth inhibition
endpointValue: 22.5
--
compound: CN1C(c2ccco2)NC(=O)C12CCN(Cc1ccccc1)CC2 (stereo not drawn)
reportedEndpoint: growth inhibition
endpointValue: 16.8
--
compound: COc1ccc(C2(C(OC)OC)NC(=O)NC2=O)cc1 (stereo not drawn)
reportedEndpoint: growth inhibition
endpointValue: -0.7
--
compound: CC[N+](C)(CCO)C(Cc1ccccc1)c1ccccc1 (stereo not drawn)
reportedEndpoint: growth inhibition
endpointValue: 19.5
--
compound: CCOC(=O)C1Cc2ccccc2OC1=O (stereo not drawn)
reportedEndpoint: growth inhibition
endpointValue: 9.55
--
compound: O=C(NC1CCCCC1)Oc1ccc(Cl)cc1Cl
reportedEndpoint: growth inhibition
endpointValue: 35.6
--
compound: CN(C)NC(=O)/C=C\C(=O)O
reportedEndpoint: growth inhibition
endpointValue: -7.45
--
compound: ClCC/C(=C(/Cl)c1ccccc1)c1ccccc1
reportedEndpoint: growth inhibition
endpointValue: -14.3
--
compound: Cc1c(CCC(C)C)oc2cc3oc(CCC(C)C)c(C)c3cc12
reportedEndpoint: growth inhibition
endpointValue: 6.3
--
compound: CC(=O)N(C)N=Nc1ccc(C(F)(F)F)cc1
reportedEndpoint: growth inhibition
endpointValue: -5.8
--
compound: CCCCCCCCCCCC(=O)N(CCOC(=O)c1ccccc1)CCc1ccccc1
reportedEndpoint: growth inhibition
endpointValue: -3.2
--
compound: COc1ccc(C)c(C2=CCCCC2)c1
reportedEndpoint: growth inhibition
endpointValue: -2.35

---

protocol: NCI Yeast Anticancer Drug Screen. Data for the bub3 strain (AID 167)
protocolConditions: S. cerevisiae bub3 mutant strain, at 50.0 µM, stronger effect = higher value
Method: Growth inhibition of yeast strains with defined genetic alterations is measured as a screen for potential anti-cancer activity. Selected strains with alterations in DNA damage repair or cell cycle control were exposed to compounds and growth inhibition was measured relative to vehicle treated controls. The strain used in this assay is bub3
The panel holds about 79,000 compounds, 15% with a hit somewhere; the sample as a whole holds those more often.

molecule: c1ccc(C2Nc3ccccc3C3OCCCC23)cc1 (stereo unspecified)
measureUnit: %
growth inhibition: -20.6
//
molecule: ClC/C=C/COC1CCCCO1 (stereo unspecified)
measureUnit: %
growth inhibition: -7.6
//
molecule: Cc1ccccc1N=Nc1c(-c2ccccc2)nn(C(N)=S)c1-c1ccccc1
measureUnit: %
growth inhibition: 0.95
//
molecule: O=C(O)c1ccc(O)c(C(=O)O)c1
measureUnit: %
growth inhibition: -6.15
//
molecule: CCN(CC)C(=O)c1ccccc1
measureUnit: %
growth inhibition: -24.6
//
molecule: CC(C)(C)[Si](C)(C)OCC1OC(n2cc(I)c(=O)[nH]c2=O)C(O[Si](C)(C)C(C)(C)C)C1O[Si](C)(C)C(C)(C)C (stereo unspecified)
measureUnit: %
growth inhibition: 11.9
//
molecule: CCCCCCCCCCCc1cc(=O)n(-c2cc(Cl)ccc2Cl)n1C
measureUnit: %
growth inhibition: 99
//
molecule: C=CCC(C(=O)NC(N)=O)c1ccccc1 (stereo unspecified)
measureUnit: %
growth inhibition: 8.05
//
molecule: COc1ccc2c(c1)Sc1c(Cl)c3c(c(Cl)c1=N2)Sc1cc(OC)ccc1N=3
measureUnit: %
growth inhibition: -2.2
//
molecule: CC[N+](C)(CC)CCNc1cc2c(c3c(=O)c4ccccc4sc13)CCCC2
measureUnit: %
growth inhibition: 99
//
molecule: O=C(Nc1nccs1)Nc1ccc(Cl)cc1[N+](=O)[O-]
measureUnit: %
growth inhibition: 24.8

---

protocol: NCI Yeast Anticancer Drug Screen. Data for the bub3 strain (AID 167)
protocolConditions: S. cerevisiae bub3 mutant strain, at 50.0 µM, stronger effect = higher value
This is part of a sample that, as a whole, favours compounds with a hit. Of some 79,000 tested, about 15% had one in any assay. Activity calls are given as the source filed them. Cut-off read from the data, not from the text of the source: active = growth inhibition above about 70%; inactive = the rest.
// reported growth inhibition for each item listed

molecule: C=C=CON1CCCCC1
growth inhibition: -12.7% (inactive)
//
molecule: COc1cc(=O)n2c3ccccc3n(C)c2c1C#N
growth inhibition: -4.35% (inactive)
//
molecule: CCc1ccc(OC/C=C(\C)CCC2OC2(C)CC)cc1 (stereo not given)
growth inhibition: 32% (inactive)
//
molecule: CCC(=O)OCC(OC(=O)CC)C(OC(=O)CC)C(OC(=O)CC)C(COC(=O)CC)OC(=O)CC (stereo not given)
growth inhibition: 1.35% (inactive)
//
molecule: O=C(O)c1ccccc1[N+](=O)[O-]
growth inhibition: -4.3% (inactive)
//
molecule: Cn1c(=O)c2[nH]c(CCCCCc3nc4c([nH]3)c(=O)n(C)c(=O)n4C)nc2n(C)c1=O
growth inhibition: -16.4% (inactive)
//
molecule: CCCCCCCCCCCCCCCCCC(=O)NCC[N+](C)(C)C
growth inhibition: 98.8% (active)
//
molecule: NC(=O)N/N=C/C(Cc1ccccc1)=N/OCc1ccccc1
growth inhibition: 16.4% (inactive)
//
molecule: COc1ccc(OC)c(NC(=O)NN(C)C)c1
growth inhibition: -21.1% (inactive)
//
molecule: CC(=O)c1ccc(C)c([N+](=O)[O-])c1
growth inhibition: -7.15% (inactive)
//
molecule: COc1cc(/C=C/c2ccc(/C=C/c3cc(OC)c(OC)c(OC)c3)cc2)cc(OC)c1OC
growth inhibition: -8.75% (inactive)
//
molecule: COc1cc(C2N3CCCN2CC3)cc(OC)c1OC (stereo not given)
growth inhibition: -7.75% (inactive)
//
molecule: COc1ccc(NC(=O)Oc2ccc(OC)cc2)cc1
growth inhibition: 5.5% (inactive)
//
molecule: CC[C@]1(O)C(=O)OCc2c1cc1n(c2=O)Cc2cc3c(N)cccc3nc2-1
growth inhibition: 14.2% (inactive)
//
molecule: Cc1ccc(S(=O)(=O)OCC23CCC(C4CC42)C2CC23)cc1 (stereo not given)
growth inhibition: -10.1% (inactive)
//
molecule: O=c1[nH]c2ccccc2c2ccc(Br)cc12
growth inhibition: -3% (inactive)
//
molecule: CC(=O)N(C(C)=O)c1cc2c3ccccc3ccc2c2ccccc12
growth inhibition: 32.8% (inactive)
//
molecule: Brc1cc(Br)c(Br)cc1Br
growth inhibition: -3.65% (inactive)
//
molecule: O=C1c2ccccc2C2(c3ccccc3)C=NNC12c1ccccc1 (stereo not given)
growth inhibition: 55.5% (inactive)
//
molecule: Cc1ccc(S(=O)(=O)N/N=C/C(C)(c2ccccc2)c2ccccc2)cc1
growth inhibition: 15.8% (inactive)
//
molecule: CCCCCCCC(=O)N1CCCC(C)C1 (stereo not given)
growth inhibition: -35.3% (inactive)
//
molecule: COc1ccc(CCN=C(N)CCl)cc1
growth inhibition: 18.9% (inactive)
//
molecule: CC(=O)NC(Cc1cc(I)c(OC(C)=O)c(I)c1)C(C)=O (stereo not given)
growth inhibition: 4% (inactive)
//
molecule: O=C(O)CN1C(=O)NC(C2CC2)(C2CC2)C1=O
growth inhibition: 8.85% (inactive)
//
molecule: CC1=C(C(=O)Nc2cc(C)ccn2)CCO1
growth inhibition: 11.7% (inactive)
